- target.under.test: Casein kinase I isoform epsilon (Homo sapiens, UniProt P49674)
- Sequence (P49674 whole entry, canonical isoform): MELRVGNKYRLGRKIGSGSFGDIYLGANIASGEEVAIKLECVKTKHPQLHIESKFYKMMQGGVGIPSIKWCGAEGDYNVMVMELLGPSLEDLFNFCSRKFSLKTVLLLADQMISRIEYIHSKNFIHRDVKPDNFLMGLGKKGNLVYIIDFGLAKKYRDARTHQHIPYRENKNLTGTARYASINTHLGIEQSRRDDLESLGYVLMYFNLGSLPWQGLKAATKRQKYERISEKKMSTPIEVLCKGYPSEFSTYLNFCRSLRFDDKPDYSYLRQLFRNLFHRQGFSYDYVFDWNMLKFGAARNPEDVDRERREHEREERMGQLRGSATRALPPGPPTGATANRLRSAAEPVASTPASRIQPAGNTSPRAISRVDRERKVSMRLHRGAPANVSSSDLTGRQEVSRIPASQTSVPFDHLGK
assay.metric: IC50

Sample answers from the record:
molecule: CC(C)(C)NC(=O)OC12CC3CC(CC(NC4=N/C(=C\c5ccc6ncsc6c5)C(=O)N4)(C3)C1)C2
IC50: 5 µM
--
molecule: O=C1NC(N[C@@H]2c3ccccc3C[C@H]2O)=N/C1=C\c1ccc2ncsc2c1
IC50: > 10 µM
--
molecule: Cn1cc2cc(/C=C3\N=C(NC45CC6CC(CC(C6)C4)C5)NC3=O)ccc2n1
IC50: > 10 µM

Ask | Could you share which IC50 value was measured for COC12CC3CC(CC(NC4=N/C(=C\c5ccc6ncsc6c5)C(=O)N4)(C3)C1)C2 ?
Reply | 1.76 µM

Ask | Could you share which IC50 value was measured for Cn1ccc2cc(/C=C3\N=C(NC4CCCCC4)NC3=O)ccc21 ?
Reply | > 10 µM

Ask | Could you share which IC50 value was measured for COC(=O)C1(NC2=N/C(=C\c3ccc4ncsc4c3)C(=O)N2)C2CC3CC(C2)CC1C3 (stereo not given) ?
Reply | > 10 µM

Ask | Could you share which IC50 value was measured for O=C1NC(NC23CC4CC(CC(C4)C2)C3)=N/C1=C\c1ccc2scnc2c1 ?
Reply | > 10 µM

Ask | Could you share which IC50 value was measured for O=C1NC(Nc2ccccn2)=N/C1=C\c1ccc2ncsc2c1 ?
Reply | > 10 µM

Ask | Could you share which IC50 value was measured for CC(C)[C@@H]1CC[C@@H](C)C[C@H]1NC1=N/C(=C\c2ccc3ncsc3c2)C(=O)N1 ?
Reply | > 10 µM

Ask | Could you share which IC50 value was measured for CCOC[C@@H](CC(C)C)NC1=N/C(=C\c2ccc3ncsc3c2)C(=O)N1 ?
Reply | > 10 µM

---

Record set of IC50 for target or system Dual specificity tyrosine-phosphorylation-regulated kinase 1A (Homo sapiens).
Write it as a number; the unit µM goes unstated.

Sample answers from the record:
compound: O=C1NC(NC2CCCCC2)=N/C1=C\c1ccc2c(c1)CCO2
assay.metric: IC50
measured.number: 0.237
--
compound: CN1CCN(c2ccc(NC3=N/C(=C\c4ccc5c(c4)OCCO5)C(=O)N3)cc2)CC1
assay.metric: IC50
measured.number: 0.007

Ask | Could you share which IC50 value was measured for COC(=O)[C@@H](NC1=N/C(=C\c2ccc3ncsc3c2)C(=O)N1)C(C)O (stereo not given in full) ?
Reply | 0.003

Ask | Could you share which IC50 value was measured for O=C1NC(NC23CC4CC(CC(C4)C2)C3)=N/C1=C\c1ccc2[nH]ncc2c1 ?
Reply | 0.01

---

Record set of pIC50 for target or system Glycogen synthase kinase-3 beta (Homo sapiens, UniProt P49841).
Interpret pIC50 as the negative base-10 log of the concentration measured in mol/L.

compound: CC(=O)OC12CC3CC(CC(NC4=N/C(=C\c5ccc6ncsc6c5)C(=O)N4)(C3)C1)C2
target.under.test: Glycogen synthase kinase-3 beta (Homo sapiens, UniProt P49841)
Sequence (P49841 whole entry): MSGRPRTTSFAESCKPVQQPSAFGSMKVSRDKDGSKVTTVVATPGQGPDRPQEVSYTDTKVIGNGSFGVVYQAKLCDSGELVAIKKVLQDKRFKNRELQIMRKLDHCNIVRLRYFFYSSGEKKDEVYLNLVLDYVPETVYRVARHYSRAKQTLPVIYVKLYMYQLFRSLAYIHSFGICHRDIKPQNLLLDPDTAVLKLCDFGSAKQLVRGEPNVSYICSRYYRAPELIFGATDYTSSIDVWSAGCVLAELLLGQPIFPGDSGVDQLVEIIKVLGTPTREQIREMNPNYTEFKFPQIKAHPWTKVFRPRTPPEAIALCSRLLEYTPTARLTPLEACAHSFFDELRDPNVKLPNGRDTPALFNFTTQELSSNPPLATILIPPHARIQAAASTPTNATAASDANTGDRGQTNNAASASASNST
measured.number: 5.61
--
compound: Cc1ccc(CNC2=N/C(=C\c3ccc4ncsc4c3)C(=O)N2)o1
target.under.test: Glycogen synthase kinase-3 beta (Homo sapiens, UniProt P49841)
measured.number: 5.55
--
compound: COc1ccc(/C=C2\N=C(Nc3ccc(N4CCN(C)CC4)cc3)NC2=O)cc1O
target.under.test: Glycogen synthase kinase-3 beta (Homo sapiens, UniProt P49841)
measured.number: 6.70

Below: the item to evaluate.
Ask | Could you share which pIC50 value was measured for CC(C)C[C@@H](CF)NC1=N/C(=C\c2ccc3ncsc3c2)C(=O)N1 ?
Reply | 5.20

Reference source for all entries: ChEMBL document CHEMBL5360622
